conditions: in methyl acetate, 313.15 K
measurement-type: solubility (mole fraction)

Fill blank: measured solubility (mole fraction) of the molecule NC(=O)Cc1ccc(O)cc1 is ____.
0.00908

----------
details: in n-butyl acetate, 308.15 K
measurement-type: solubility (mole fraction)
Give bare numbers.

Data request, read-out solubility (mole fraction), for NC(=O)Cc1ccc(O)cc1
0.00694

----------
details: in n-butanol, 308.15 K
measurement-type: solubility (mole fraction)
Answers are plain numbers.

Could you tell me which solubility (mole fraction) is on file for NC(=O)Cc1ccc(O)cc1 ?
0.00899

----------
conditions: in n-butyl acetate, 323.15 K
measurement-type: solubility (mole fraction)
Give bare numbers.

Quick one: solubility (mole fraction) for NC(=O)Cc1ccc(O)cc1 ?
0.0105

----------
conditions: in isopropanol, 288.15 K
measurement-type: solubility (mole fraction)
Give bare numbers.

I have this molecule here, NC(=O)Cc1ccc(O)cc1 , and I need its recorded solubility (mole fraction).
0.0046

----------
conditions: in isopropanol, 303.15 K
measurement-type: solubility (mole fraction)
Answers are plain numbers.

Recorded solubility (mole fraction) for NC(=O)Cc1ccc(O)cc1 , please?
0.00852

----------
conditions: in ethanol, 303.15 K
measurement-type: solubility (mole fraction)
Give bare numbers.

May I ask what solubility (mole fraction) has been recorded for NC(=O)Cc1ccc(O)cc1 ?
0.00902

----------
conditions: in n-butanol, 298.15 K
measurement-type: solubility (mole fraction)
Numbers only.

Data request, read-out solubility (mole fraction), for NC(=O)Cc1ccc(O)cc1
0.00642

----------
settings: in methyl acetate, 293.15 K
measurement-type: solubility (mole fraction)
One number for each entry.

I have this compound here, NC(=O)Cc1ccc(O)cc1 , and I need its recorded solubility (mole fraction).
0.00486

----------
conditions: in n-propanol, 308.15 K
measurement-type: solubility (mole fraction)

Record request: solubility (mole fraction) value, item NC(=O)Cc1ccc(O)cc1
0.00629

----------
details: in acetonitrile, 278.15 K
measurement-type: solubility (mole fraction)
Give bare numbers.

solubility (mole fraction) for NC(=O)Cc1ccc(O)cc1 ?
0.00096

----------
conditions: in n-butyl acetate, 318.15 K
measurement-type: solubility (mole fraction)
Give bare numbers.

Record request: solubility (mole fraction) value, item NC(=O)Cc1ccc(O)cc1
0.00935

----------
settings: in n-heptane, 298.15 K
measurement-type: solubility (mole fraction)
Numbers only.

Reported solubility (mole fraction), compound NC(=O)Cc1ccc(O)cc1 : ____
0.00194

----------
settings: in n-heptane, 303.15 K
measurement-type: solubility (mole fraction)
One number for each entry.

Consider the compound shown here: NC(=O)Cc1ccc(O)cc1 What is its recorded solubility (mole fraction)?
0.00253

----------
settings: in n-butanol, 278.15 K
measurement-type: solubility (mole fraction)
Give bare numbers.

So what's the measured solubility (mole fraction) for this one? NC(=O)Cc1ccc(O)cc1
0.00284

----------
settings: in water, 288.15 K
measurement-type: solubility (mole fraction)
Give bare numbers.

Reported solubility (mole fraction) for NC(=O)Cc1ccc(O)cc1 : what is it?
0.00188

----------
details: in water, 283.15 K
measurement-type: solubility (mole fraction)
One number for each entry.

# input compound: NC(=O)Cc1ccc(O)cc1 ; wanted: its solubility (mole fraction)
0.00141

----------
conditions: in n-hexane, 303.15 K
measurement-type: solubility (mole fraction)
Give bare numbers.

Any idea what solubility (mole fraction) was measured for NC(=O)Cc1ccc(O)cc1 ?
0.00205

----------
settings: in n-propanol, 283.15 K
measurement-type: solubility (mole fraction)

Query (compound): NC(=O)Cc1ccc(O)cc1 ; field requested: solubility (mole fraction)
0.00245

----------
settings: in n-butyl acetate, 303.15 K
measurement-type: solubility (mole fraction)

Consider the compound NC(=O)Cc1ccc(O)cc1 and give its measured solubility (mole fraction).
0.00587

----------
settings: in ethyl acetate, 288.15 K
measurement-type: solubility (mole fraction)
Numbers only.

Value lookup for solubility (mole fraction); key = NC(=O)Cc1ccc(O)cc1
0.00238

----------
details: in n-heptane, 293.15 K
measurement-type: solubility (mole fraction)
Give bare numbers.

Quick check: solubility (mole fraction) of NC(=O)Cc1ccc(O)cc1 ?
0.00145

----------
settings: in water, 298.15 K
measurement-type: solubility (mole fraction)
Give bare numbers.

Entry NC(=O)Cc1ccc(O)cc1 has what solubility (mole fraction)?
0.00305

----------
conditions: in ethanol, 288.15 K
measurement-type: solubility (mole fraction)
Answers are plain numbers.

// query solubility (mole fraction) value for entry NC(=O)Cc1ccc(O)cc1
0.00534

----------
details: in isopropanol, 278.15 K
measurement-type: solubility (mole fraction)

Reported solubility (mole fraction) for NC(=O)Cc1ccc(O)cc1 : what is it?
0.00319

----------
details: in n-hexane, 278.15 K
measurement-type: solubility (mole fraction)
Numbers only.

Quick one: solubility (mole fraction) for NC(=O)Cc1ccc(O)cc1 ?
0.00032

----------
details: in n-butyl acetate, 298.15 K
measurement-type: solubility (mole fraction)
Numbers only.

Could you share which solubility (mole fraction) value was measured for NC(=O)Cc1ccc(O)cc1 ?
0.00491

----------
conditions: in n-propanol, 313.15 K
measurement-type: solubility (mole fraction)
One number for each entry.

What does the data say about its solubility (mole fraction)? Entry: NC(=O)Cc1ccc(O)cc1
0.00734

----------
conditions: in ethyl acetate, 278.15 K
measurement-type: solubility (mole fraction)

Record request: solubility (mole fraction) value, item NC(=O)Cc1ccc(O)cc1
0.0017

----------
conditions: in n-heptane, 278.15 K
measurement-type: solubility (mole fraction)
Numbers only.

Form field: reported solubility (mole fraction) of NC(=O)Cc1ccc(O)cc1
0.00061

----------
details: in acetonitrile, 303.15 K
measurement-type: solubility (mole fraction)

Which solubility (mole fraction) value belongs to NC(=O)Cc1ccc(O)cc1 ?
0.00376

----------
conditions: in acetonitrile, 313.15 K
measurement-type: solubility (mole fraction)
One number for each entry.

If you can, please state the reported solubility (mole fraction) value of NC(=O)Cc1ccc(O)cc1 .
0.00573

----------
details: in n-propanol, 288.15 K
measurement-type: solubility (mole fraction)
One number for each entry.

Would you mind telling me what solubility (mole fraction) value was observed for NC(=O)Cc1ccc(O)cc1 ?
0.00292

----------
conditions: in ethyl acetate, 303.15 K
measurement-type: solubility (mole fraction)
Answers are plain numbers.

Requested read-out: solubility (mole fraction). Entry: NC(=O)Cc1ccc(O)cc1
0.00455

----------
details: in methanol, 318.15 K
measurement-type: solubility (mole fraction)
Answers are plain numbers.

Please look up its solubility (mole fraction): NC(=O)Cc1ccc(O)cc1
0.0218

----------
settings: in methanol, 298.15 K
measurement-type: solubility (mole fraction)
Answers are plain numbers.

Suppose we examine the compound NC(=O)Cc1ccc(O)cc1 ; what solubility (mole fraction) value has been reported?
0.0128

----------
conditions: in n-heptane, 313.15 K
measurement-type: solubility (mole fraction)
Give bare numbers.

Given the entry NC(=O)Cc1ccc(O)cc1 , report its measured solubility (mole fraction).
0.00418

----------
conditions: in n-hexane, 323.15 K
measurement-type: solubility (mole fraction)
Give bare numbers.

// returns reported solubility (mole fraction) for input NC(=O)Cc1ccc(O)cc1
0.0056

----------
settings: in methyl acetate, 283.15 K
measurement-type: solubility (mole fraction)
Numbers only.

Can you share its solubility (mole fraction)? I mean this compound: NC(=O)Cc1ccc(O)cc1
0.00359

----------
details: in n-butanol, 323.15 K
measurement-type: solubility (mole fraction)

May I ask what solubility (mole fraction) has been recorded for NC(=O)Cc1ccc(O)cc1 ?
0.0144

----------
conditions: in n-butyl acetate, 283.15 K
measurement-type: solubility (mole fraction)
Give bare numbers.

Given the entry NC(=O)Cc1ccc(O)cc1 , report its measured solubility (mole fraction).
0.003

----------
details: in n-butyl acetate, 313.15 K
measurement-type: solubility (mole fraction)
Answers are plain numbers.

Given the entry NC(=O)Cc1ccc(O)cc1 , report its measured solubility (mole fraction).
0.00812

----------
settings: in n-hexane, 288.15 K
measurement-type: solubility (mole fraction)
Give bare numbers.

Please report the recorded solubility (mole fraction) for NC(=O)Cc1ccc(O)cc1 .
0.00082

----------
settings: in water, 323.15 K
measurement-type: solubility (mole fraction)
Answers are plain numbers.

GET /values?readout=solubility (mole fraction)&item= NC(=O)Cc1ccc(O)cc1
0.00869

----------
conditions: in methyl acetate, 278.15 K
measurement-type: solubility (mole fraction)
Answers are plain numbers.

What value of solubility (mole fraction) has been recorded for this entry: NC(=O)Cc1ccc(O)cc1
0.0032

----------
settings: in acetonitrile, 288.15 K
measurement-type: solubility (mole fraction)
Give bare numbers.

I would be grateful if you could share the reported solubility (mole fraction) for NC(=O)Cc1ccc(O)cc1 .
0.00188

----------
conditions: in ethanol, 278.15 K
measurement-type: solubility (mole fraction)
Numbers only.

Recorded solubility (mole fraction) for NC(=O)Cc1ccc(O)cc1 , please?
0.00381

----------
conditions: in n-butanol, 313.15 K
measurement-type: solubility (mole fraction)
One number for each entry.

I'd like to know its solubility (mole fraction). The molecule in question is NC(=O)Cc1ccc(O)cc1
0.0106
